Assay: in vivo
Settings: mouse, in vivo, iv, 10 mg/kg

{"structure_as_smiles": "[2H]C1([2H])CN(c2ccc(OC(F)(F)F)c(Nc3ncc4c(n3)-c3c(c(C(N)=O)nn3CCO)CC4)c2)C([2H])([2H])[C@H]2CCCN21", "display_unit": "h", "half-life": 1.06}

###

Assay: in vivo
Details: female, CD1, mouse, plasma, iv, 2 mg/kg
experimental_readout: AUC(0-t) (ng·h/mL)

{"compound": "CN1CCN(c2ccc(OC(F)(F)F)c(Nc3ncc4c(n3)-c3c(c(C(N)=O)nn3CCO)CC4)c2)CC1 [NMS-P937, onvansertib, reference compound]", "quantitative_result": 353}

###

Reported Vd is given for each of the following molecules.
Assay: in vivo
Conditions: female, CD1, mouse, plasma, iv, 10 mg/kg
experimental_readout: Vd (L/kg)

{"molecule": "CN1CCN(c2ccc(OC(F)(F)F)c(Nc3ncc4c(n3)-c3c(c(C(N)=O)nn3CCO)CC4)c2)CC1 [NMS-P937, onvansertib, reference compound]", "experimental_readout": "Vd", "display_unit": "L/kg", "quantitative_result": 3.22}
{"molecule": "[2H]C1([2H])N(C)C([2H])([2H])C([2H])([2H])N(c2ccc(OC(F)(F)F)c(Nc3ncc4c(n3)-c3c(c(C(N)=O)nn3CCO)CC4)c2)C1([2H])[2H]", "experimental_readout": "Vd", "display_unit": "L/kg", "quantitative_result": 3.02}

###

Assay: in vivo
Conditions: female, CD1, mouse, plasma, iv, 10 mg/kg

{"molecule": "CN1CCN(c2ccc(OC(F)(F)F)c(Nc3ncc4c(n3)-c3c(c(C(N)=O)nn3CCO)CC4)c2)CC1 [NMS-P937, onvansertib, reference compound]", "clearance (mL/min/kg)": 36.9}
{"molecule": "[2H]C1([2H])N(C)C([2H])([2H])C([2H])([2H])N(c2ccc(OC(F)(F)F)c(Nc3ncc4c(n3)-c3c(c(C(N)=O)nn3CCO)CC4)c2)C1([2H])[2H]", "clearance (mL/min/kg)": 55.1}

###

Assay: Metabolic stability in liver microsomes (human)
Assay type: in vitro ADME
Details: Human, 45 min, first line of pair
Experimental: For negative samples, add 80µL of PBS (100mM, pH = 7.4) solution. Vortex at 800 rpm for 10 seconds, then pre-incubate in a 37°C water bath for 10 minutes. • 4) After pre-incubation, add 2 µL of control drug or test compound to each well to initiate the reaction. […]
hey, just use true if measured Residual Amount (%) 45 min is less than 20%, otherwise false

{"compound": "[2H]C1([2H])N(C)C([2H])([2H])C([2H])([2H])N(c2ccc(OC(F)(F)F)c(Nc3ncc4c(n3)-c3c(c(C(N)=O)nn3CCO)CC4)c2)C1([2H])[2H] [CPD06]", "category_label": "false"}
{"compound": "NC(=O)c1nn(CCO)c2c1CCc1cnc(Nc3cc(N4CCN5CCC[C@@H]5C4)ccc3OC(F)(F)F)nc1-2 [CPD02]", "category_label": "false"}
{"compound": "CN1CCN(c2ccc(OC(F)(F)F)c(Nc3ncc4c(n3)-c3c(c(C(N)=O)nn3CCO)CC4)c2)CC1 [NMS-P937, onvansertib, reference compound]", "category_label": "false"}
{"compound": "O=C(O)Cc1ccccc1Nc1c(Cl)cccc1Cl [Diclofenac, reference compound]", "category_label": "true"}
{"compound": "[2H]C1([2H])CN(c2ccc(OC(F)(F)F)c(Nc3ncc4c(n3)-c3c(c(C(N)=O)nn3CCO)CC4)c2)C([2H])([2H])[C@H]2CCCN21 [CPD04]", "category_label": "false"}
